Provide the reported reverse-splicing fitness of each item.
B1: Azoarcus group I ribozyme (parent)
chain: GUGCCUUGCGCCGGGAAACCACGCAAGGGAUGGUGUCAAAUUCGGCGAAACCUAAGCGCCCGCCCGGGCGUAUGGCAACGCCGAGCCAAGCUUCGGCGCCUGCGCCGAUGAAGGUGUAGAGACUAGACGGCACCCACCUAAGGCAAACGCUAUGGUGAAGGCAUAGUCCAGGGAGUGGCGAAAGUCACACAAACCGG

Variants of: B1
assaySummary: reverse-splicing fitness (ratio to wild type); higher = more active; in vitro selection; Mg2+ level not given

# variantSpec, reverse-splicing fitness
data = [
    ("C82U A145U C150A C169G U176C", 0.00918),
    ("C82U A111G C150G U176A", 0.00888),
    ("C82G A111U A120C A145C C150G C169A U176C", 0.00917),
]

# evaluate next
[in] Find the recorded reverse-splicing fitness belonging to C82G A111U A120G A145C C150U C169G and report it.
[out] 0.00915
